Test: Order parameter in liquid crystal medium E43
Format: physicochemical
Conditions: E43, 20° C., Table 4
endpoint.label: Order Parameter

{"columns": ["compound", "measured.result"],
 "data": [
  ["CC(CCc1cc(N)c2c(c1O)C(=O)c1c(Sc3ccccc3)cc(CCC(C)CC(C)(C)C)c(O)c1C2=O)CC(C)(C)C (stereo not shown)", 0.73],
  ["CC(C)(C)c1ccc(Sc2ccc(N)c3c2C(=O)c2c(N)ccc(Sc4ccccc4)c2C3=O)cc1", 0.73],
  ["Cc1ccc(Sc2cccc3c2C(=O)c2cccc(Sc4ccccc4)c2C3=O)cc1", 0.80],
  ["CC(C)(C)c1ccc(Sc2cccc3c2C(=O)c2cccc(Sc4ccccc4)c2C3=O)cc1", 0.79],
  ["Cc1cccc(Sc2cccc3c2C(=O)c2cccc(Sc4ccccc4)c2C3=O)c1", 0.78],
  ["CCCCCc1cc(Sc2ccccc2)c2c(c1O)C(=O)c1c(O)c(CCCCC)cc(Sc3ccc(C(C)(C)C)cc3)c1C2=O", 0.77],
  ["CCCCCCCCCCCCc1cc(Sc2ccccc2)c2c(c1O)C(=O)c1c(O)c(CCCCCCCCCCCC)cc(Sc3ccc(C(C)(C)C)cc3)c1C2=O", 0.83],
  ["CCCCCCCc1cc(Sc2ccccc2)c2c(c1O)C(=O)c1c(O)c(CCCCCCC)cc(Sc3ccc(C(C)(C)C)cc3)c1C2=O", 0.78],
  ["CC(CCc1cc(N)c2c(c1O)C(=O)c1c(O)c(CCC(C)CC(C)(C)C)cc(Sc3ccccc3)c1C2=O)CC(C)(C)C (stereo not shown)", 0.74],
  ["CCCCSc1cccc2c1C(=O)c1cccc(Sc3ccccc3)c1C2=O", 0.75],
  ["O=C1c2cccc(Sc3ccc(-c4ccccc4)cc3)c2C(=O)c2cccc(Sc3ccccc3)c21", 0.78],
  ["O=C1c2cccc(SC3CCCCC3)c2C(=O)c2cccc(Sc3ccccc3)c21", 0.81],
  ["CC(CCc1cc(Sc2ccccc2)c2c(c1O)C(=O)c1c(Sc3ccccc3)cc(CCC(C)CC(C)(C)C)c(O)c1C2=O)CC(C)(C)C (stereo not shown) [Example 23(e)]", 0.77]
]}

====

Assay: Order parameter in liquid crystal medium E43
Type: physicochemical
Conditions: E43, 20° C., Table 4
endpoint.label: Order Parameter

{"columns": ["compound", "measured.result"],
 "data": [
  ["CC(CCc1cc(Sc2ccccc2)c2c(c1O)C(=O)c1c(O)c(CCC(C)CC(C)(C)C)cc(Sc3ccccc3)c1C2=O)CC(C)(C)C (stereo not drawn) [23(f)]", 0.72],
  ["CC(CCc1cc(Sc2ccccc2)c2c(c1O)C(=O)c1c([N+](=O)[O-])cc(CCC(C)CC(C)(C)C)c(O)c1C2=O)CC(C)(C)C (stereo not drawn) [Example 23(a)]", 0.72],
  ["CC(C)(C)c1ccc(Sc2cccc3c2C(=O)c2c(Sc4ccccc4)ccc(Sc4ccc(C(C)(C)C)cc4)c2C3=O)cc1 [Example 22]", 0.81]
]}

====

Test: Absorption maximum in liquid crystal medium E43
Type: physicochemical
Settings: E43, 20° C., Table 4
endpoint.label: λmax (nm)

{"columns": ["molecule", "λmax (nm)"],
 "data": [
  ["CC(C)(C)c1ccc(Sc2cccc3c2C(=O)c2cccc(Sc4ccccc4)c2C3=O)cc1", 464],
  ["CC(C)(C)c1ccc(Sc2cccc3c2C(=O)c2c(Sc4ccccc4)ccc(Sc4ccc(C(C)(C)C)cc4)c2C3=O)cc1", 520],
  ["CCCCSc1cccc2c1C(=O)c1cccc(Sc3ccccc3)c1C2=O", 470],
  ["CCCCCCCc1cc(Sc2ccccc2)c2c(c1O)C(=O)c1c(O)c(CCCCCCC)cc(Sc3ccc(C(C)(C)C)cc3)c1C2=O", 592],
  ["Cc1cccc(Sc2cccc3c2C(=O)c2cccc(Sc4ccccc4)c2C3=O)c1", 464],
  ["Cc1ccc(Sc2cccc3c2C(=O)c2cccc(Sc4ccccc4)c2C3=O)cc1", 464],
  ["CC(CCc1cc(Sc2ccccc2)c2c(c1O)C(=O)c1c(Sc3ccccc3)cc(CCC(C)CC(C)(C)C)c(O)c1C2=O)CC(C)(C)C (stereo not shown) [Example 23(e)]", 590],
  ["CCCCCc1cc(Sc2ccccc2)c2c(c1O)C(=O)c1c(O)c(CCCCC)cc(Sc3ccc(C(C)(C)C)cc3)c1C2=O", 592],
  ["CCCCCCCCCCCCc1cc(Sc2ccccc2)c2c(c1O)C(=O)c1c(O)c(CCCCCCCCCCCC)cc(Sc3ccc(C(C)(C)C)cc3)c1C2=O", 590],
  ["CC(C)(C)c1ccc(Sc2ccc(N)c3c2C(=O)c2c(N)ccc(Sc4ccccc4)c2C3=O)cc1", 605]
]}
